- SYSTEM NAME: MET kinase (Homo sapiens, UniProt P08581)
- Sequence (P08581 25-307): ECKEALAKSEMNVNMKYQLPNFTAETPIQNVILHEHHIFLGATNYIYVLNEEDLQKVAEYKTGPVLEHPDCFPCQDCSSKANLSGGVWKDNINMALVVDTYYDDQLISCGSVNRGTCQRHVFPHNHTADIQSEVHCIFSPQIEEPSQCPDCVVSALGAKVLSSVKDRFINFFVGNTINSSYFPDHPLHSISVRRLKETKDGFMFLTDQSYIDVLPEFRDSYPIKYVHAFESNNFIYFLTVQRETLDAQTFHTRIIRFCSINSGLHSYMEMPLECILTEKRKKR
- Sequence (P08581 308-1390): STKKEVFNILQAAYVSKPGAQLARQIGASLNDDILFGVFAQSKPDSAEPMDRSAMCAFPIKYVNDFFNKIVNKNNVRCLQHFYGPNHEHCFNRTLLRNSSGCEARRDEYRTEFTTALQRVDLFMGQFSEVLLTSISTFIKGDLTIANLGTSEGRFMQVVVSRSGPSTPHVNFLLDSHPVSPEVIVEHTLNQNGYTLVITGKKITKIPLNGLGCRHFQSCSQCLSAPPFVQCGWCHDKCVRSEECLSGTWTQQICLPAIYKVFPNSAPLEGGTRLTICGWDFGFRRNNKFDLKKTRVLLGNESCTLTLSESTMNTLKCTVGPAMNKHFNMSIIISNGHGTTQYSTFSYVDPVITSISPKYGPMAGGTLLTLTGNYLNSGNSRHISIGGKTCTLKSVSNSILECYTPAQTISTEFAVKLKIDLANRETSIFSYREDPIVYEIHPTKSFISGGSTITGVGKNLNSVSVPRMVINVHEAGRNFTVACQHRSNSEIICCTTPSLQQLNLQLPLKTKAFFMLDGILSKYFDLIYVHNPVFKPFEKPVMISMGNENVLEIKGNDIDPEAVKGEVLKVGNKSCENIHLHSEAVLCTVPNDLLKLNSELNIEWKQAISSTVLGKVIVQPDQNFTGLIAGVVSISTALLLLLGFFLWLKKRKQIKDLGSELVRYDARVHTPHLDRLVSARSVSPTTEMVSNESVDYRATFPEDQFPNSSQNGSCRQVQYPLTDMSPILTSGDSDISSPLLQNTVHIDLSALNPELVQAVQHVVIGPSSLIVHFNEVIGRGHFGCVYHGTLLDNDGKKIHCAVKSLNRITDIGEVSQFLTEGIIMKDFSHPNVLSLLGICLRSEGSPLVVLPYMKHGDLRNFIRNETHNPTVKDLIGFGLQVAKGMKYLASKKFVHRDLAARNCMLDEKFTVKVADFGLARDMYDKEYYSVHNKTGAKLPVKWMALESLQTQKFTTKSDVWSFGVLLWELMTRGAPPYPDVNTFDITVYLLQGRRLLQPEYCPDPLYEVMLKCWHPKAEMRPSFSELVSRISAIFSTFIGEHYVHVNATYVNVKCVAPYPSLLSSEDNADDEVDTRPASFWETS
pIC50: −log10 of the molar value.
READOUT TYPE: pIC50

>>> print(df.to_string())
                               entry_smiles  recorded_value
0  Cn1c(N/N=C/c2ccc(OCc3cn(Cc4ccc(Br)cc4)nn3)cc2)nc2ccccc2c1=O            4.64

###

- Tested on: U-87MG
- ASSAY: cells
- Parameters: MTT antiproliferative assay, absorbance at 570 nm, monolayer cancer cells
- ASSAY SETUP: Homo sapiens, 72 h, MTT, read-out: IC50 (µM) / Mean ± SEM / U-87MG
Consider the following molecules and their measured IC50 readings.
READOUT TYPE: IC50

>>> print(df.to_string())
                                   molecule  readout_type  recorded_value
0  Cn1c(N/N=C/c2ccc(OCc3cn(Cc4ccc(Cl)c(Cl)c4)nn3)cc2)nc2ccccc2c1=O [CM8]          IC50         51.1 µM
1  Cn1c(N/N=C/c2ccc(OCc3cn(Cc4ccccc4)nn3)cc2)nc2ccccc2c1=O [CM6]          IC50        > 100 µM
2  Cn1c(N/N=C/c2ccc(OCc3cn(Cc4ccc([N+](=O)[O-])cc4)nn3)cc2)nc2ccccc2c1=O [CM1]          IC50        > 100 µM
3  Cn1c(N/N=C/c2ccc(OCc3cn(Cc4ccc(F)cc4)nn3)cc2)nc2ccccc2c1=O [CM4]          IC50         67.1 µM
4  Cn1c(N/N=C/c2ccc(OCc3cn(Cc4ccc(Br)cc4)nn3)cc2)nc2ccccc2c1=O [CM9]          IC50         24.6 µM
5  Cn1c(N/N=C/c2ccc(OCc3cn(Cc4ccc(C(C)(C)C)cc4)nn3)cc2)nc2ccccc2c1=O [CM3]          IC50        > 100 µM
6  Cn1c(N/N=C/c2ccc(OCc3cn(Cc4ccc(Cl)cc4)nn3)cc2)nc2ccccc2c1=O [CM5]          IC50        > 100 µM
7  Cc1ccc(Cn2cc(COc3ccc(/C=N/Nc4nc5ccccc5c(=O)n4C)cc3)nn2)cc1 [CM2]          IC50        > 100 µM
